Test system: PC-3 prostate
measurement_description: NCI tumour cell line growth inhibition, 48 h; in the data active = GI50 below about 0.43 µM; inactive = the rest
Outcomes: active, inactive

>>> classification("COc1ccc(-c2cc(/C=C/C(=O)c3cc(OC)c(OC)c(OC)c3)[nH]n2)cc1OC")
"inactive"
>>> classification("COc1ccc2c(c1)nc1n2C(c2ccc(F)cc2)SC1 (stereo not drawn)")
"inactive"
>>> classification("O=C(Nc1ccccc1O)c1ccc(CNC(=O)c2ccsc2Nc2ccnc(C(F)(F)F)c2)cc1")
"inactive"
>>> classification("C/C(=N\\n1c(N)c(C#N)c(-c2ccc(Cl)cc2)c(C#N)c1=O)c1ccncc1")
"inactive"
>>> classification("CN(C)C/C=C/C(=O)Nc1ccc(C(=O)N2CCC[C@@H](Nc3ncc(Cl)c(-c4c[nH]c5ccccc45)n3)C2)cc1")
"active"
>>> classification("C1=C2CNCC3=Cc4ccc5ccccc5c4OC23Oc2c1ccc1ccccc21")
"inactive"
>>> classification("C=CC(=O)Nc1cccc(Nc2nc(Nc3ccc(OCCOC(F)F)cc3)ncc2F)c1")
"inactive"
>>> classification("COc1cc2nnn3c4ncccc4c(N=O)c3c2cc1OC")
"inactive"

----------
System: TK-10 renal
measurement_description: NCI tumour cell line growth inhibition, 48 h
experimental_readout: TGI

>>> assay_value("CC(C)=CCC[C@@H](C)c1c2[nH]c3ccccc3sc-2c(C)c(=O)c1=O")
"> 75 µM"
>>> assay_value("Cc1cn([C@H]2[C@@H](CO)C[C@H]2O)c(=O)[nH]c1=O")
"> 100 µM"
>>> assay_value("Cc1ccc2c(c1)CC1(C2=O)[C@H](c2ccccc2)C2C(=O)c3ccc(C)cc3C2[C@H]1c1ccccc1 (stereo partly drawn)")
"> 100 µM"
>>> assay_value("O=C(OCc1ccccc1C1CSCSC1)c1cc(C(=O)OCc2ccccc2C2CSCSC2)c(C(=O)OCc2ccccc2C2CSCSC2)cc1C(=O)OCc1ccccc1C1CSCSC1")
"> 100 µM"
>>> assay_value("COC(=O)[C@H](Cc1ccccc1)NC(=O)c1csc([C@@H](C[C@H](C(C)C)N(C)C(=O)[C@@H](NC(=O)[C@H]2CCCN2C)C2CC2)OC(C)=O)n1")
"> 33.3 µM"
>>> assay_value("COC(=O)C(NC(=O)CSc1nnc(COc2ccc(Cl)cc2)n1-c1ccccc1)C(C)C (stereo not drawn)")
"36.2 µM"
>>> assay_value("Cc1cc(=O)oc2cc(OCCn3c(C)nn(-c4ccc(Cl)cc4)c3=O)ccc12")
"88.4 µM"
>>> assay_value("N#CCCC1(CCC#N)CCCCCCC(CCC#N)(CCC#N)C(O)C1O (stereo not drawn)")
"> 100 µM"
>>> assay_value("CCOC(=O)/C(C#N)=C/N(CC)/N=C/c1ccccc1")
"> 100 µM"
>>> assay_value("c1ccc(CC(NCCNC(Cc2ccccc2)c2ccccc2)c2ccccc2)cc1 (stereo not drawn)")
"4.21 µM"
>>> assay_value("CN(C)C(=O)SC1=C(c2c(Cl)cccc2Cl)C(=O)c2ccccc21")
"9.64 µM"
>>> assay_value("CC(C)(C)c1c(C(C)(C)C)c(=O)c1=O")
"> 100 µM"
>>> assay_value("Cc1c2cccc-2ccc2c1[nH]c1ccccc12")
"4.92 µM"

----------
System: K-562 leukemia
measurement_description: NCI tumour cell line growth inhibition, 48 h
Documented TGI across a set of molecules
experimental_readout: TGI

>>> assay_value("CCCCCCCCCC(=O)Oc1cccc2onc(C)c12")
"> 100 µM"
>>> assay_value("COc1nc2c(c(O)c(C)c(=O)n2OC2OC(COC(C)=O)C(OC(C)=O)C(OC(C)=O)C2OC(C)=O)c(=O)n1C (stereo unspecified)")
"> 100 µM"
>>> assay_value("NC(=S)N/N=C\\CC(O)(C(F)(F)F)C(F)(F)F")
"> 10 µM"
>>> assay_value("O=C1CSc2nnc(CCCCCCCCc3nnc4n3NC(=O)CS4)n2N1")
"> 100 µM"
>>> assay_value("CCOc1ccc(-c2oc(/C=N/NS(=O)(=O)c3ccc(C)cc3)c([N+](=O)[O-])c2-c2ccc(OCC)cc2)cc1")
"> 56.3 µM"
>>> assay_value("COc1ccc(CC2=NCCc3cc(OC)c(OC)cc32)cc1Br")
"93.2 µM"
>>> assay_value("COc1ccc2[nH]c(-c3ccccc3)cc2c1")
"> 100 µM"
>>> assay_value("Cc1cc(=O)[nH]c(NNC(C#N)c2ccc([N+](=O)[O-])cc2)n1 (stereo unspecified)")
"> 100 µM"
>>> assay_value("Cn1cnc([N+](=O)[O-])c1Sc1nc(N)nc2nc[nH]c12")
"> 100 µM"
>>> assay_value("CN(C)CCCN1c2ccccc2Sc2ccc(Cl)cc21")
"11.3 µM"
>>> assay_value("CCOC(=O)c1nc2ccccc2nc1NCc1ccc(Cl)cc1Cl")
"> 100 µM"
>>> assay_value("Nc1c(N=Nc2ccc(-c3ccc(N=Nc4c(O)ccc5cc(S(=O)(=O)O)cc(S(=O)(=O)O)c45)cc3)cc2)c(S(=O)(=O)O)cc2cc(S(=O)(=O)O)c(N=Nc3ccccc3)c(O)c12")
"> 100 µM"
>>> assay_value("CNc1ccc(S(=O)Nc2ccccc2)cc1 (stereo unspecified)")
"> 100 µM"
>>> assay_value("Cc1cn([C@H]2[C@@H](CO)C[C@H]2O)c(=O)[nH]c1=O")
"> 100 µM"
>>> assay_value("c1cnc2[nH]cc(-c3csc(-c4cn(CCCN5CCCCC5)c5ccccc45)n3)c2c1")
"3.52 µM"
>>> assay_value("O=C1C(c2ccccc2)=C(c2ccccc2)[C@H](c2ccccc2)[C@]1(Cc1nnn(-c2ccc([N+](=O)[O-])cc2)c1N1CCOCC1)c1ccccc1")
"> 37.5 µM"
